Test system: PKA (h)
Assay protocol: Kinase inhibition assay (33P-ATP, P30 filter, scintillation counting): PKA
Format: biochemical
Conditions used: 30µM Testsubstanz (100 µM ATP); 40 min
Tick T if Hemmung von Kinasen in % PKA (h) is 3% or greater. Tick F if Hemmung von Kinasen in % PKA (h) is less than 3%.

Field: example entries. Status: answers known.
Fc1ccc(Nc2ncnc3[nH]cnc23)cc1 | T
Cn1cnc2c(Nc3ccccc3)ncnc21 | F
COc1ncnc2ncn(Cc3ccc(F)cc3)c12 | T

Problem: Check the entry `Nc1ncnc2ncn(Cc3ccc(F)cc3)c12` : does Hemmung von Kinasen in % PKA (h) equal or exceed 3%?
Result: T

Problem: Check the entry `Cn1cnc2c(Sc3ccc(F)cc3)ncnc21` : does Hemmung von Kinasen in % PKA (h) equal or exceed 3%?
Result: F

Problem: Check the entry `Fc1ccc(Sc2ncnc3[nH]ccc23)cc1` : does Hemmung von Kinasen in % PKA (h) equal or exceed 3%?
Result: F

Problem: Check the entry `Cn1c(-c2ccc(S(C)(=O)=O)cc2)nc2c(Sc3ccccc3)ncnc21` : does Hemmung von Kinasen in % PKA (h) equal or exceed 3%?
Result: T

Problem: Check the entry `Cn1cnc2c(Nc3ccc(F)cc3)ncnc21` : does Hemmung von Kinasen in % PKA (h) equal or exceed 3%?
Result: F

Problem: Check the entry `c1ccc(Sc2ncnc3[nH]ccc23)cc1` : does Hemmung von Kinasen in % PKA (h) equal or exceed 3%?
Result: F

Problem: Check the entry `Fc1ccc(Sc2ncnc3c2ncn3Cc2ccccc2)cc1` : does Hemmung von Kinasen in % PKA (h) equal or exceed 3%?
Result: F

Problem: Check the entry `Fc1ccc(Cn2cnc3c(Sc4ccc(F)cc4)ncnc32)cc1` : does Hemmung von Kinasen in % PKA (h) equal or exceed 3%?
Result: F

Problem: Check the entry `c1ccc(Nc2ncnc3[nH]cnc23)cc1` : does Hemmung von Kinasen in % PKA (h) equal or exceed 3%?
Result: T

###

System tested: MAPK2 (h) (Homo sapiens, UniProt P28482)
Sequence (P28482 whole entry): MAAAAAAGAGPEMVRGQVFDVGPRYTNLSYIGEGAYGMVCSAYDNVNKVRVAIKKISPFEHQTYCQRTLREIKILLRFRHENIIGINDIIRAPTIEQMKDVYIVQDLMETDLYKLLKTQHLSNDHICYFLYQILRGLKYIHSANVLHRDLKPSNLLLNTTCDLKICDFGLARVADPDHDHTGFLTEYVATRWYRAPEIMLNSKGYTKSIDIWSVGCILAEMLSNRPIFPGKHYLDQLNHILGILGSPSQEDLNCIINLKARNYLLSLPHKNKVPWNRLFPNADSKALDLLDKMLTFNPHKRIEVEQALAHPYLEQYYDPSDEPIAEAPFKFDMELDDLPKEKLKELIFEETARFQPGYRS
Assay protocol: Kinase inhibition assay: MAPK2
Format: biochemical
Conditions used: 30µM Testsubstanz (100 µM ATP); read-out: Hemmung von Kinasen in % MAPK2 (h)
Test readout: inhibition at 30 µM (%)
Kindly provide the numeric value in % only, without the unit symbol.

Problem: Report inhibition at 30 µM for Cn1c(-c2ccccc2)nc2c(Sc3ccccc3)ncnc21 [Verbd. 23]
Result: 0

Problem: Report inhibition at 30 µM for Cn1c(-c2ccccc2)nc2c(Sc3ccc(F)cc3)ncnc21 [Verbd. 24]
Result: 1

Problem: Report inhibition at 30 µM for Cn1c(C#CCCO)nc2c(Sc3ccccc3)ncnc21 [Verbd. 79]
Result: 0

Problem: Report inhibition at 30 µM for Cn1cnc2c(Nc3ccccc3)ncnc21 [Verbd. 13, (9-Methyl-9H-purin-6-yl)-phenyl-amin]
Result: 42

Problem: Report inhibition at 30 µM for C(=Cc1ncnc2[nH]cnc12)c1ccccc1 [Verbd. 72, 6-Styryl-9H-purin]
Result: 20

###

System tested: UniProt P49841
Sequence (P49841 whole entry): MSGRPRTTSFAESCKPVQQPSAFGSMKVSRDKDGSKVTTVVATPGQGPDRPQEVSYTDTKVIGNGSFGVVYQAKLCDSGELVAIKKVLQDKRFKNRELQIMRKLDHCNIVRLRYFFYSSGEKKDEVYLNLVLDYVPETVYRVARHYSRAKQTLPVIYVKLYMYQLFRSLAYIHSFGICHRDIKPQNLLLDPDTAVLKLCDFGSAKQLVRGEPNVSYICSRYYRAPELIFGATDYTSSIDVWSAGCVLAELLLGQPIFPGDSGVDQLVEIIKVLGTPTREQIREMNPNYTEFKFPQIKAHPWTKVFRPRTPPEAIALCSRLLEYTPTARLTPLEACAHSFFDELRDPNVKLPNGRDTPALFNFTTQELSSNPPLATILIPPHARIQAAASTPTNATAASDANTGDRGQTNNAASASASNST
Assay protocol: Kinase inhibition assay (33P-ATP, P30 filter, scintillation counting): GSK3β
Format: biochemical
Conditions used: 30µM Testsubstanz (100 µM ATP); read-out: Hemmung von Kinasen in % GSK3β (h)
Test readout: inhibition at 30 µM (%)
Kindly provide the numeric value in % only, without the unit symbol.

Illustrative cases are given below, each with its answer.
Nc1ncnc2ncn(Cc3ccc(F)cc3)c12 [Verbd. 43, 7-(4-Fluoro-benzyl)-7H-purin-6-ylamin] | 0
Fc1ccc(Cn2cnc3c(Sc4ccccc4)ncnc32)cc1 [Verbd. 76] | 0
c1ccc(Nc2ncnc3[nH]cnc23)cc1 [Verbd. 1, Phenyl-(9H-purin-6-yl)-amin] | 13
Cn1cnc2c(Nc3ccccc3)ncnc21 [Verbd. 13, (9-Methyl-9H-purin-6-yl)-phenyl-amin] | 26
Fc1ccc(Sc2ncnc3c2ncn3Cc2ccccc2)cc1 [Verbd. 75] | 0
Nc1ncnc2c1ncn2Cc1ccc(F)cc1 [Verbd. 42a, 9-(4-Fluoro-benzyl)-9H-purin-6-ylamin] | 7

Problem: Report inhibition at 30 µM for Fc1ccc(Nc2ncnc3[nH]cnc23)cc1 [Verbd. 2, (4-Fluoro-phenyl)-(9H-purin-6-yl)-amin]
Result: 13

Problem: Report inhibition at 30 µM for Cn1c(-c2ccc(S(C)(=O)=O)cc2)nc2c(Sc3ccccc3)ncnc21 [Verbd. 62]
Result: 0

Ref: patent EP1444982A1
